# target.under.test: human NKp30 (human) (UniProt O14931)
# Sequence (O14931 19-135 limits assumed): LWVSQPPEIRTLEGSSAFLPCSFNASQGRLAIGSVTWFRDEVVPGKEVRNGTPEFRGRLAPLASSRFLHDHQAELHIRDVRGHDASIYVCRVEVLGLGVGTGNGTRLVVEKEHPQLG
# assay.comment: BLI, ratio to ΔB7-H6_wt
binders and their reported KD improvement compared to ΔB7-H6 wt
Give the value, in units of fold, as a plain number.

>  <binder>
ΔB7-H6_S3#31-SEED-PGLALA (bispecific antibody, part only; not given: SEED Fc chains and hu225 EGFR Fab, part only) chain, part: DLKVEMMAGGTQITPLNDNVTIFCNIFYSQPLNITIMGITWFWKSLTFDKEVKVFEFYGDHQEAFRPGAIVSPWRLKSGDASLRLPGIQLEEAGEYRCEVVVTPLKAQGTVQLEVVASPAS

>  <result.unit>
fold

>  <KD improvement compared to ΔB7-H6 wt>
9.4

$$$$
>  <binder>
ΔB7-H6_S3#21-SEED-PGLALA (bispecific antibody, part only; not given: SEED Fc chains and hu225 Fab, part only) chain, part: DLKVEMMAGGTQITPLNDNVTIFCNIFYSQPLNITLMGITWFWKSLTFDKEVKVFEFWGDHQEAFRPGAIVSPWRLKSGDASLRLPGIQLEEAGEYRCEVVVTPYKAQGTVQLEVVASPAS

>  <result.unit>
fold

>  <KD improvement compared to ΔB7-H6 wt>
22.8

$$$$

Task: # input binder: ΔB7-H6_S3#19-SEED-PGLALA (bispecific antibody, part only; not given: SEED Fc chains and hu225 Fab, part only) chain, part: DLKVEMMAGGTQITPLNDNVTIFCNIFYSQPLNITQMGITWFWKSLTFDKEVKVFEFWGDHQEAFRPGAIVSPWRLKSGDASLRLPGIQLEEAGEYRCEVVVTPYKAQGTVQLEVVASPAS ; wanted: its KD improvement compared to ΔB7-H6 wt
Result: 2.8

Task: # input binder: ΔB7-H6_S3#25-SEED-PGLALA (bispecific antibody, part only; not given: SEED Fc chains and hu225 Fab, part only) chain, part: DLKVEMMAGGTQITPLNDNVTIFCNIFYSQPLNITWMGITWFWKSLTFDKEVKVFEFYGDHQEAFRPGAIVSPWRLKSGDASLRLPGIQLEEAGEYRCEVVVTPYKAQGTVQLEVVASPAS ; wanted: its KD improvement compared to ΔB7-H6 wt
Result: 6.3

// provenance: patent US20230287082A1
